The entries below come with measured protein stability index values attached.
B1: FAM107A (parent)
chain: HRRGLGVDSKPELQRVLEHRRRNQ

Variants of: B1
experimental_details: protein stability index of a GFP-peptide fusion (GPS, HEK-293T) (PSI 1-6); higher = more stable;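 note: lentivirally expressed fusions sorted by FACS into six bins by GFP to DsRed ratio, PSI derived from sequencing read proportions per bin multiplied by bin number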
condition_notes: c terminus: a fixed tail appended
Reply with the value as a number alone.

These solved cases illustrate the format of a correct answer.
mutant: R15E
protein stability index: 4.17
--
mutant: Q24N
protein stability index: 4.19
--
mutant: G4R
protein stability index: 4.2
--
mutant: R21S
protein stability index: 3.37
--
mutant: D8G
protein stability index: 3.42

Which protein stability index is listed for S9D ?
4.67

Also, R3V please.
4.74
